The reported measurements were obtained from ChEMBL document CHEMBL4507327.

- measured-target: Serine/threonine-protein kinase Nek1 (Homo sapiens)
- Sequence (Q96PY6 whole entry): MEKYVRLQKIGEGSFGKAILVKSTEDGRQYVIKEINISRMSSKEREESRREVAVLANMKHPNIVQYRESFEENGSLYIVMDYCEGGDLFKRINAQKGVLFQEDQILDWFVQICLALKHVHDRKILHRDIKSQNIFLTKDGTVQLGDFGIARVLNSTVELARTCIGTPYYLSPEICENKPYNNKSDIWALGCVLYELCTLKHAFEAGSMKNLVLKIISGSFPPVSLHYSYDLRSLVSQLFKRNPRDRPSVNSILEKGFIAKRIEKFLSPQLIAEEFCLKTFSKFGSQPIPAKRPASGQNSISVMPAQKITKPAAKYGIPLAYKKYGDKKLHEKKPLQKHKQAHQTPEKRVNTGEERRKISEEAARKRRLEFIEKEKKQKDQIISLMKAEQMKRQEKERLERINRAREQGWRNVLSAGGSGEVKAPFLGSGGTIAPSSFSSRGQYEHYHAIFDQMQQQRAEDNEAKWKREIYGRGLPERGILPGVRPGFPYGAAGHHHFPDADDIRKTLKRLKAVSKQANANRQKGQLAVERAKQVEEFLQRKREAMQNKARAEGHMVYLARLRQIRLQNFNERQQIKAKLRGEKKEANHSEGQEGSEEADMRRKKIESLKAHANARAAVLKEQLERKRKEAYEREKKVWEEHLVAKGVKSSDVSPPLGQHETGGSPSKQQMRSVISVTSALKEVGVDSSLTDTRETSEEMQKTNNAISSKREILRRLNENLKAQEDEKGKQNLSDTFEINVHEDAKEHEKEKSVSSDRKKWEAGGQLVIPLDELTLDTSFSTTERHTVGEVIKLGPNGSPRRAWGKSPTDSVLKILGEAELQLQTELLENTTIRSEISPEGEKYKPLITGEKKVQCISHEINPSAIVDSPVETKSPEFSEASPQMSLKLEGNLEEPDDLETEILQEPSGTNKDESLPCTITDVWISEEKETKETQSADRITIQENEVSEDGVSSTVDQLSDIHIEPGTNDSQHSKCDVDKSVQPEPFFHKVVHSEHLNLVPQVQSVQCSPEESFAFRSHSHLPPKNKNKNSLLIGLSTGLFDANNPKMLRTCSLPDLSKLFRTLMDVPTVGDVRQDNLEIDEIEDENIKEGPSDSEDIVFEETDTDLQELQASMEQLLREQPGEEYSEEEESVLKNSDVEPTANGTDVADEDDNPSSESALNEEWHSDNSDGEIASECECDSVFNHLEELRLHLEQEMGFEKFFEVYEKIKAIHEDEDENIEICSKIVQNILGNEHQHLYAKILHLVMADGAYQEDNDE
assay-metric: pIC50
One number for each entry, as −log10 of the molar value.

{"columns": ["molecule", "pIC50"],
 "data": [
  ["CN1C(=O)[C@@H](N2CCc3cn(Cc4ccccc4)nc3C2=O)COc2ccccc21 [TP-030-1]", 6.00]
]}

For this molecule ( CN1C(=O)[C@@H](N2CCc3cn(CC4CCS(=O)(=O)CC4)nc3C2=O)COc2ccccc21 [TP-030n] ), measured pIC50 is 6.00

###

Listed here: molecules with reported pIC50 for Serine/threonine-protein kinase PAK 6 (Homo sapiens, UniProt Q9NQU5).
Give bare numbers, as −log10 of the molar value.

{"columns": ["molecule", "pIC50"],
 "data": [
  ["CN1C(=O)[C@@H](N2CCc3cn(CC4CCS(=O)(=O)CC4)nc3C2=O)COc2ccccc21 [TP-030n]", 6.00]
]}

We now examine a further molecule.
For this molecule ( CN1C(=O)[C@@H](N2CCc3cn(Cc4ccccc4)nc3C2=O)COc2ccccc21 ), measured pIC50 is 6.00

###

- measured-target: Mitogen-activated protein kinase 11 (Homo sapiens, UniProt Q15759)
- Sequence (Q15759 whole entry): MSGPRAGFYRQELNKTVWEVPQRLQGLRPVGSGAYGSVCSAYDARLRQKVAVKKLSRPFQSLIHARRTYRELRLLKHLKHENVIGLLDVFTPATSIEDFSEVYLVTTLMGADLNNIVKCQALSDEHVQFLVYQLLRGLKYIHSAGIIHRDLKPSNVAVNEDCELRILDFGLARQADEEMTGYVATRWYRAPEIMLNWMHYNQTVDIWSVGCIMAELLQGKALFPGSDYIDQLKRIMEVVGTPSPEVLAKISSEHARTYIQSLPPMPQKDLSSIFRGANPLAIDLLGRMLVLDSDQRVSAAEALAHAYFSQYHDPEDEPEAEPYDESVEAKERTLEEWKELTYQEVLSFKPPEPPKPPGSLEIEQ
- experiment-notes: p38beta(MP11LGI1) Takeda global kinase panel
assay-metric: IC50 (nM)
Give bare numbers, in nM.

{"columns": ["compound", "IC50 [nM]"],
 "data": [
  ["CN1C(=O)[C@@H](N2CCc3cn(Cc4ccccc4)nc3C2=O)COc2ccccc21", 1000]
]}

For this compound ( CN1C(=O)[C@@H](N2CCc3cn(CC4CCS(=O)(=O)CC4)nc3C2=O)COc2ccccc21 [TP-030n] ), measured IC50 is 1000

###

Listed here: compounds with reported IC50 for Ephrin type-A receptor 5 (Homo sapiens, UniProt P54756).
Numbers only, in nM.

{"columns": ["compound", "assay-metric", "readout-value"],
 "data": [
  ["CN1C(=O)[C@@H](N2CCc3cn(CC4CCS(=O)(=O)CC4)nc3C2=O)COc2ccccc21 [TP-030n]", "IC50", 1000]
]}

We now examine a further compound.
For this compound ( CN1C(=O)[C@@H](N2CCc3cn(Cc4ccccc4)nc3C2=O)COc2ccccc21 [TP-030-1] ), measured IC50 is 1000

###

- measured-target: hERG (KCNH2) (Homo sapiens)
- Sequence (Q12809 whole entry): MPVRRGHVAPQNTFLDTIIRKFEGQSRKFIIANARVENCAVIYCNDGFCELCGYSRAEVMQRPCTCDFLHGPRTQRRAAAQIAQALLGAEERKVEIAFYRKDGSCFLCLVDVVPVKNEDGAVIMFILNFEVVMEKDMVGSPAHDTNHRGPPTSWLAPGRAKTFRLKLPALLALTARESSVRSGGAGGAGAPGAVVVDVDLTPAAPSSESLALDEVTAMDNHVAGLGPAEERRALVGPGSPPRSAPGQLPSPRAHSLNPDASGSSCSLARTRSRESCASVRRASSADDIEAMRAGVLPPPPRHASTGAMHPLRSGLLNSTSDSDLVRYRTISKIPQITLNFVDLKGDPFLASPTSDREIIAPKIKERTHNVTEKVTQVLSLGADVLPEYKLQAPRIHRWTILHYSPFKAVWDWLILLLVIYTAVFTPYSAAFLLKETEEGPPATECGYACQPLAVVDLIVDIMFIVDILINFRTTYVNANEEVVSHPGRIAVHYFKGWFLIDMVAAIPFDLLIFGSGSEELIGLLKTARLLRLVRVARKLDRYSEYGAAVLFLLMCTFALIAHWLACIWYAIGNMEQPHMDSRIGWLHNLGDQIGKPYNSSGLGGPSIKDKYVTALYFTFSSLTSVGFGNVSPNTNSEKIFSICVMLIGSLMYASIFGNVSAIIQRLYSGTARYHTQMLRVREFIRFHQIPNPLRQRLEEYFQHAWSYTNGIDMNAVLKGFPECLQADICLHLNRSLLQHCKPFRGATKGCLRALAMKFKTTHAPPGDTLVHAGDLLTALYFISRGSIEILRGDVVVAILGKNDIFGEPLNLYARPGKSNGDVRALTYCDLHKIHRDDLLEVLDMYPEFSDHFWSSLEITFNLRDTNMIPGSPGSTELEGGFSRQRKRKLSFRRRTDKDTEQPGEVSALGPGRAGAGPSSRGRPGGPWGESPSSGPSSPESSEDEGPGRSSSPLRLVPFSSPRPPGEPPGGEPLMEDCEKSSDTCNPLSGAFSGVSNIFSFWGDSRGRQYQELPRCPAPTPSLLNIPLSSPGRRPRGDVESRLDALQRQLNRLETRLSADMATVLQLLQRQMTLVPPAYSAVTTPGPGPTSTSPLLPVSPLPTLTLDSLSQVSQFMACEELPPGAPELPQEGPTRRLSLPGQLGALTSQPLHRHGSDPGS
- experiment-notes: Inhibition of Potassium Channel hERG at 10 µM in the Eurofins-Panlabs radioligand binding assay (Eurofins_assay_265900)
- Set-up: ligand concentration 1.5 nM, non-specific ligand with concentration Astemizole, incubation time 60 min, incubation temperature 25 °C
- assay-context: HEK-293 cells that express human recombinant hERG, probe [3H] Astemizole, compound concentration 10 uM
assay-metric: inhibition at 60 min, 10 µM

For this molecule ( CN1C(=O)[C@@H](N2CCc3cn(CC4CCS(=O)(=O)CC4)nc3C2=O)COc2ccccc21 [TP-030n] ), measured inhibition at 60 min, 10 µM is 11% (not active)

###

- measured-target: Serine/threonine-protein kinase D2 (Homo sapiens)
- Sequence (Q9BZL6 whole entry): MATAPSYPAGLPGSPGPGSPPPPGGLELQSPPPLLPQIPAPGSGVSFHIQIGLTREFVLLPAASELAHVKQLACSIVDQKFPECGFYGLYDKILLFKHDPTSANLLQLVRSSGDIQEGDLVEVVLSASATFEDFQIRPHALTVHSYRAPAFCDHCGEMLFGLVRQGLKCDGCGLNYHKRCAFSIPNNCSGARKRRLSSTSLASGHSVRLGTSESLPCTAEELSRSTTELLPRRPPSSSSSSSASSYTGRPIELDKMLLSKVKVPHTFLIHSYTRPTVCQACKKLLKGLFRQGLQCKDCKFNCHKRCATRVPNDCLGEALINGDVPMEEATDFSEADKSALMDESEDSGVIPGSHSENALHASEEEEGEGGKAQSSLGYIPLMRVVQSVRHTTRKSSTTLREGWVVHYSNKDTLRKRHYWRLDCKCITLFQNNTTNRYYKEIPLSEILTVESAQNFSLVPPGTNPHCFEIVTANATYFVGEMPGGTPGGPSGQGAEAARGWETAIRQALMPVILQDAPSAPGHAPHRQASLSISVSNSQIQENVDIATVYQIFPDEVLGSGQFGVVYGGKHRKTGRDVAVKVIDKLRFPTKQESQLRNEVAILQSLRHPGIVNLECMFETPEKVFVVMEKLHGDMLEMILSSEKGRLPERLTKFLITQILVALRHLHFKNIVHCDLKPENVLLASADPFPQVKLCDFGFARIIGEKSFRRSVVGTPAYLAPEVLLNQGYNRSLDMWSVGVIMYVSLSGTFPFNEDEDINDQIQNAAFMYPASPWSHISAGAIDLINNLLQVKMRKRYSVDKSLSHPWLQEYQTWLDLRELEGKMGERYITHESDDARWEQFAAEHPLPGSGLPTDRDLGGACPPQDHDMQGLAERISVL
- experiment-notes: PKD2(PRD2LHY1) Takeda global kinase panel
Hi there, I'd appreciate the recorded IC50 for every entry that follows.
One number for each entry, in nM.

{"columns": ["compound", "quantity-unit", "readout-value"],
 "data": [
  ["CN1C(=O)[C@@H](N2CCc3cn(CC4CCS(=O)(=O)CC4)nc3C2=O)COc2ccccc21 [TP-030n]", "nM", 1000]
]}

For this compound ( CN1C(=O)[C@@H](N2CCc3cn(Cc4ccccc4)nc3C2=O)COc2ccccc21 [TP-030-1] ), measured IC50 is 1000

###

- measured-target: STE20-like serine/threonine-protein kinase (Homo sapiens, UniProt Q9H2G2)
- Sequence (Q9H2G2 whole entry): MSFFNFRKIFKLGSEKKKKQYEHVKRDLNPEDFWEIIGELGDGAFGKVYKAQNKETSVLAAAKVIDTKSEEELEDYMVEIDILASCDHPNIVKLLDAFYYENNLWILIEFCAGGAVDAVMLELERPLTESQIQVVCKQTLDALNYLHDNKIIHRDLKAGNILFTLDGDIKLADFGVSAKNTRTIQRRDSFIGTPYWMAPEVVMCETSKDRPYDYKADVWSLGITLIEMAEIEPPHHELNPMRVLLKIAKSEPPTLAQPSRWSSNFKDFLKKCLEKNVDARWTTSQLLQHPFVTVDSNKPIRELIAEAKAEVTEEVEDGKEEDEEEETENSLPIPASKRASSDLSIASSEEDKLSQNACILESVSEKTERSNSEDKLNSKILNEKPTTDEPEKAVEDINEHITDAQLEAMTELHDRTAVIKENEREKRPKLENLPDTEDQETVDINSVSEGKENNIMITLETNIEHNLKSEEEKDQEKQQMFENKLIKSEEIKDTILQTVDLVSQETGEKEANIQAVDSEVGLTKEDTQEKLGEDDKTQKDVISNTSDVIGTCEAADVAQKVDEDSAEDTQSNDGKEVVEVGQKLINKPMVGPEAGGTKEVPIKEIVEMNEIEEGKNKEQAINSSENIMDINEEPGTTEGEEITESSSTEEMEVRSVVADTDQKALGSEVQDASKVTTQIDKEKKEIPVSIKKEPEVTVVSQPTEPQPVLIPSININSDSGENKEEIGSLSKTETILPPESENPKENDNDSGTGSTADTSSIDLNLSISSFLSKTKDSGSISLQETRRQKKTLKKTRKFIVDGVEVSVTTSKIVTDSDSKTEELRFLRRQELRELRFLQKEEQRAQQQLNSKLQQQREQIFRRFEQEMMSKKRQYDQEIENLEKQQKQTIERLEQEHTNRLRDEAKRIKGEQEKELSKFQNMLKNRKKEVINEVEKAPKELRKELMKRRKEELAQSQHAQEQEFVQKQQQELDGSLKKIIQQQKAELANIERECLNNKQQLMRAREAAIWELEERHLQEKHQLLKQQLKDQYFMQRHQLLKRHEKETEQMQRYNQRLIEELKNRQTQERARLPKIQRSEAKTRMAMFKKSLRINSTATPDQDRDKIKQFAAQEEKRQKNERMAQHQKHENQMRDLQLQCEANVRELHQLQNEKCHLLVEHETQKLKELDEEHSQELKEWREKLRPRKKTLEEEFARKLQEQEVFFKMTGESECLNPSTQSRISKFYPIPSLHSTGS
assay-metric: IC50
Reply with a number, then the unit it belongs to.

{"columns": ["molecule", "measured-target", "IC50"],
 "data": [
  ["CN1C(=O)[C@@H](N2CCc3cn(Cc4ccccc4)nc3C2=O)COc2ccccc21", "STE20-like serine/threonine-protein kinase (Homo sapiens, UniProt Q9H2G2)", "1000 nM"]
]}

We now examine a further molecule.
Summary line: CN1C(=O)[C@@H](N2CCc3cn(CC4CCS(=O)(=O)CC4)nc3C2=O)COc2ccccc21 [TP-030n] , STE20-like serine/threonine-protein kinase (Homo sapiens, UniProt Q9H2G2), reported IC50 = 1000 nM

###

- measured-target: PAS domain-containing serine/threonine-protein kinase (Homo sapiens, UniProt Q96RG2)
- Sequence (Q96RG2 whole entry, the tested form may be a part): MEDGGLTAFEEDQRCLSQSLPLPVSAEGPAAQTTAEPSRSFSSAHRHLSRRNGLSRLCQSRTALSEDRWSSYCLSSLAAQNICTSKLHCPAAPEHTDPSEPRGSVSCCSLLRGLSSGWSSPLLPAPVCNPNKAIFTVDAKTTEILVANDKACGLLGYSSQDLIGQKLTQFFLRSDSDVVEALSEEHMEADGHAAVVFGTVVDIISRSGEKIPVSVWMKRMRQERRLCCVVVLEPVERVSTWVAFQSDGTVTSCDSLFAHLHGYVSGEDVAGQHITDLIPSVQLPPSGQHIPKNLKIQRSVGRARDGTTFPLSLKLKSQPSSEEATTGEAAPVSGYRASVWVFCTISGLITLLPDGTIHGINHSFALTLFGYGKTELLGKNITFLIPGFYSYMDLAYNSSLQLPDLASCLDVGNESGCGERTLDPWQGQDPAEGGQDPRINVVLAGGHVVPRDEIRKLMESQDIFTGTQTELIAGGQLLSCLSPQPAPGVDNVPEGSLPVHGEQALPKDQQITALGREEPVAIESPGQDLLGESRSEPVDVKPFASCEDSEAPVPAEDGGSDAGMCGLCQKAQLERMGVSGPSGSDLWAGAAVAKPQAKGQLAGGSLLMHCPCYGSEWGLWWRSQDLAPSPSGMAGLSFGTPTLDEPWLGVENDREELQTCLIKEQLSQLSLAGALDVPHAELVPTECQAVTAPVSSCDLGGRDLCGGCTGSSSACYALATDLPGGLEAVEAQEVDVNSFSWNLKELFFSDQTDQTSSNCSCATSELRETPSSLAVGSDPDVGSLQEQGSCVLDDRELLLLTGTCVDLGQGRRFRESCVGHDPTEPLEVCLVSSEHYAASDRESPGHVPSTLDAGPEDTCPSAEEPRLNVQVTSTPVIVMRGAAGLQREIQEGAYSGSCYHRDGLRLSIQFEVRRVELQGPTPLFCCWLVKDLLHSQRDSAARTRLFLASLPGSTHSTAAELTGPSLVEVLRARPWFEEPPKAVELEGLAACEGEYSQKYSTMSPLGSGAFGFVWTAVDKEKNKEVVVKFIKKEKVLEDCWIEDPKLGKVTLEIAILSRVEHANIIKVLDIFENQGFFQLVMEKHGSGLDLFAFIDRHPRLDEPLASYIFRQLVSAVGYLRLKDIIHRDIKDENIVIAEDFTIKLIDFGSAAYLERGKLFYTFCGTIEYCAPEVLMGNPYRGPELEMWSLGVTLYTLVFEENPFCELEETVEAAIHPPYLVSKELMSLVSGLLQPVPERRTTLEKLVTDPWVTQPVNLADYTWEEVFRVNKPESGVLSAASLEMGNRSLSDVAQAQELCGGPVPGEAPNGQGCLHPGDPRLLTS
assay-metric: pIC50
Numbers only, as −log10 of the molar value.

{"columns": ["compound", "pIC50"],
 "data": [
  ["CN1C(=O)[C@@H](N2CCc3cn(Cc4ccccc4)nc3C2=O)COc2ccccc21", 6.00]
]}

Summary line: CN1C(=O)[C@@H](N2CCc3cn(CC4CCS(=O)(=O)CC4)nc3C2=O)COc2ccccc21 [TP-030n] , PAS domain-containing serine/threonine-protein kinase (Homo sapiens, UniProt Q96RG2), reported pIC50 = 6.00
